B1: Serine/threonine-protein kinase A-Raf, residues 21 to 89; numbered along this chain, P10398 (parent)
chain: VKVYLPNKQRTVVTVRDGMSVYDSLDKALKVRGLNQDCCVVYRLIKGRKTVTAWDTAIAPLDGEELIVE

# Variants of: B1
# method: abundance fitness (aPCA) (normalised: wild type 0, dead -1); higher = more abundant; growth selection in yeast, the domain comes from the species named
# details: Homo sapiens
Answer each item with its documented abundance fitness.
Form field (numeric): enter value without unit.

Kindly note the recorded abundance fitness for VKVYLPNKQRTVFTVRDGMSVYDSLDKALKVRGLNQDCCVVYRLIKGRKTVTAWDTAIAPLDGEELIVE [V13F] , which is -0.795

Kindly note the recorded abundance fitness for VKVYLPNKQRTVVTVRDGMSVYDSLDKACKVRGLNQDCCVVYRLIKGRKTVTAWDTAIAPLDGEELIVE [L29C] , which is -0.995

Kindly note the recorded abundance fitness for VKVYLPNKQRTVVTVRDGMSVYDSLDKALKVRGLNQDCCVVYRLIKVRKTVTAWDTAIAPLDGEELIVE [G47V] , which is -0.863

Kindly note the recorded abundance fitness for VKVYLPNKQRTVVTVRDGMSVYDSLDKALKVRGLNQDCCVVYRLIKGLKTVTAWDTAIAPLDGEELIVE [R48L] , which is -0.307

Kindly note the recorded abundance fitness for VKVYLPNKQRTVVTVRDGMSVYDSLDKALKVRGLNQDNCVVYRLIKGRKTVTAWDTAIAPLDGEELIVE [C38N] , which is 0.141

Kindly note the recorded abundance fitness for VKVYLPNKQRTVVTVRDGMSVYDSLDKALKVRGLNQDCCVVYRLFKGRKTVTAWDTAIAPLDGEELIVE [I45F] , which is -0.179

Kindly note the recorded abundance fitness for VKVYLPNKQRTVVTVRDGMSVYDSLDKALKVRGLNQDCCVVYRLIKGRKTRTAWDTAIAPLDGEELIVE [V51R] , which is -0.002

Kindly note the recorded abundance fitness for VKVYLPNKQYTVVTVRDGMSVYDSLDKALKVRGLNQDCCVVYRLIKGRKTVTAWDTAIAPLDGEELIVE [R10Y] , which is 0.051

Kindly note the recorded abundance fitness for VKVYLPNKQRTVVTVRQGMSVYDSLDKALKVRGLNQDCCVVYRLIKGRKTVTAWDTAIAPLDGEELIVE [D17Q] , which is 0

Kindly note the recorded abundance fitness for VKVYLPNKQRTVVAVRDGMSVYDSLDKALKVRGLNQDCCVVYRLIKGRKTVTAWDTAIAPLDGEELIVE [T14A] , which is -0.078

Kindly note the recorded abundance fitness for VKVYLPNKQRTVVTVRDGMSVYDSLDKAAKVRGLNQDCCVVYRLIKGRKTVTAWDTAIAPLDGEELIVE [L29A] , which is -0.933

Kindly note the recorded abundance fitness for VKVYLPNKQRTVVTVRDGMSVYDSLDKALKVRGLNQDCCVVYRLIKGRKTVTAWDTAIALLDGEELIVE [P60L] , which is 0.001

Kindly note the recorded abundance fitness for VKVYLPNKQRTVVTVRDGMSVYDSLDKALKVRGLNQDCCVVYRLIKGRKTVTAWNTAIAPLDGEELIVE [D55N] , which is -0.098

Kindly note the recorded abundance fitness for VKVYLPNKQRTVVTVRDGMSVYDSLDKALKVRGLNQDCCVVYRLINGRKTVTAWDTAIAPLDGEELIVE [K46N] , which is 0.228

Kindly note the recorded abundance fitness for VKVYLPNKQRTVVTVRDGMSVYDSLDKALKVRGLNQDCCVVYRLIKGRKTITAWDTAIAPLDGEELIVE [V51I] , which is 0.102

Kindly note the recorded abundance fitness for VKVYLPNKQRTVVTVRDGMSVYDSLDKALKVRGLNQQCCVVYRLIKGRKTVTAWDTAIAPLDGEELIVE [D37Q] , which is 0.14

Kindly note the recorded abundance fitness for VKVYLPNSQRTVVTVRDGMSVYDSLDKALKVRGLNQDCCVVYRLIKGRKTVTAWDTAIAPLDGEELIVE [K8S] , which is -0.111

Kindly note the recorded abundance fitness for VKVYLPNKQRTVVTVRDGMSVYDSLDKRLKVRGLNQDCCVVYRLIKGRKTVTAWDTAIAPLDGEELIVE [A28R] , which is -1.06

Kindly note the recorded abundance fitness for VKVYLPNKQRTVVTVRDGMSYYDSLDKALKVRGLNQDCCVVYRLIKGRKTVTAWDTAIAPLDGEELIVE [V21Y] , which is -0.033

Kindly note the recorded abundance fitness for VKVYLPNKQRTVVTVRDGMSVYDSLDKALKVRGLNQDCCVVYWLIKGRKTVTAWDTAIAPLDGEELIVE [R43W] , which is -0.911

Kindly note the recorded abundance fitness for VKVYLPNKQRTVVTVRDGMSVYDSLDKALKVRGLNQDCCVVYRLITGRKTVTAWDTAIAPLDGEELIVE [K46T] , which is -0.383

Kindly note the recorded abundance fitness for VKVYLPNKQRMVVTVRDGMSVYDSLDKALKVRGLNQDCCVVYRLIKGRKTVTAWDTAIAPLDGEELIVE [T11M] , which is -0.002
